Assay: Inhibition of bovine pancreas trypsin
Parameters: species or system Bos taurus
Readings of Ki for the listed compounds
Lab book: enter the figure in µM, no units written.

{"compound_structure": "N=C(N)NCCC[C@@H](NS(=O)(=O)Cc1ccccc1)C(=O)N1CCC[C@H]1C(=O)NCc1ccc(C(=N)N)cc1", "Ki [µM]": 0.000336}
{"compound_structure": "N=C(N)c1ccc(CNC(=O)[C@@H]2CCCN2C(=O)[C@@H](CC2CCCCC2)NS(=O)(=O)Cc2ccccc2)cc1", "Ki [µM]": 0.00187}
{"compound_structure": "N=C(N)NCCC[C@@H](NS(=O)(=O)Cc1ccccc1)C(=O)N1CCC[C@H]1C(=O)NCc1cc(Cl)ccc1CN", "Ki [µM]": 0.506}

IN: Supply Ki value. Item: `NCc1ccc(Cl)cc1CNC(=O)[C@@H]1CCCN1C(=O)[C@@H](CC1CCCCC1)NS(=O)(=O)Cc1ccccc1`
OUT: 1.39
